system-under-test: UniProt Q9Z1M0
Sequence (Q9Z1M0 whole entry): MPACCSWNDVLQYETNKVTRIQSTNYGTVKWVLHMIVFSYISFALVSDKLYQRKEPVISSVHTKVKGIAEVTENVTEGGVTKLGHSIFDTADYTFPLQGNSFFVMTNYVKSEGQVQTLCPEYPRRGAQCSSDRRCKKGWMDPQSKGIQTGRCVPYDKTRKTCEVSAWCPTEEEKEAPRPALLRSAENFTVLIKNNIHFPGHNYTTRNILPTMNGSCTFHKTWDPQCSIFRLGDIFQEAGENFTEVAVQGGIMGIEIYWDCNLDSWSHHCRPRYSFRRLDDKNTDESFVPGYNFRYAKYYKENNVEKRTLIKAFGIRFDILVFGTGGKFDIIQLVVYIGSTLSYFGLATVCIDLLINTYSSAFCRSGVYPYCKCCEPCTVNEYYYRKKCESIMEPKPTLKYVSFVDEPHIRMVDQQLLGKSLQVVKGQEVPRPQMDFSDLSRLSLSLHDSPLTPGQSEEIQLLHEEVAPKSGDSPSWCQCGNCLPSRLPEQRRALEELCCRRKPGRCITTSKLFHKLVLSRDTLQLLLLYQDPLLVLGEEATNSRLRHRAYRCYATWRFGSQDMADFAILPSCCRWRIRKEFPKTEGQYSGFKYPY
test-method-notes: Antagonist activity at mouse P2X7 assessed as inhibition of BzATP-induced calcium flux preincubated for 30 mins followed by BzATP addition measured over 180 secs by FLIPR assay
pIC50: −log10 of the molar value.
readout-name: pIC50

> print(dat)
                                   molecule  readout.name  reported.result
1  C[C@@H]1c2nnn(-c3ncc(F)cn3)c2CCN1C(=O)c1cccc(C(F)(F)F)c1Cl [JNJ-54175446]         pIC50             7.80

* * *

Tested on: Plasma
test-method-notes: Plasma concentration in rat at 250 mg/kg administered single dose via oral gavage
Type: ADME, organism-based
details: in vivo
readout-name: concentration (µM)

> print(dat)
                                chem.smiles  reported.result
1  C[C@@H]1c2nnn(-c3ncccn3)c2CCN1C(=O)c1cccc(C(F)(F)F)c1Cl              175

* * *

Measured pIC50 of individual entries
system-under-test: Cytochrome P450 2D6 (Homo sapiens, UniProt P10635)
Sequence (P10635 whole entry): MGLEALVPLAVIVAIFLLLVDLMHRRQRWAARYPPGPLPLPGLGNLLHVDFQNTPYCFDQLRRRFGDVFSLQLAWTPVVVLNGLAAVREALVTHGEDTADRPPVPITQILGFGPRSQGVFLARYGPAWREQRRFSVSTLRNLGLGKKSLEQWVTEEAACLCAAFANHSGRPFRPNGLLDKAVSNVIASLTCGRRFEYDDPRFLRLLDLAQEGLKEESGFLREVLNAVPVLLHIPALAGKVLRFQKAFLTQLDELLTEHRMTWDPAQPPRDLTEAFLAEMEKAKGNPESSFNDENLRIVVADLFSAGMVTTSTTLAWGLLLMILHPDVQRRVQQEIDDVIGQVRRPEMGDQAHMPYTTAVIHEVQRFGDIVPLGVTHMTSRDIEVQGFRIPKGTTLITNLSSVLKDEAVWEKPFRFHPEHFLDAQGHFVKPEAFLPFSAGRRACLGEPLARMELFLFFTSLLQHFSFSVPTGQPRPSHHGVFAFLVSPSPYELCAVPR
test-method-notes: Inhibition of CYP2D6 in human liver microsomes using dextromethorphan as substrate after 15 mins by LC-MS/MS analysis
Assay type: ADME
pIC50: −log10 of the molar value.
readout-name: pIC50

> print(dat)
                                chem.smiles  readout.name  reported.result
1  C[C@@H]1c2nnn(-c3cnccn3)c2CCN1C(=O)c1cccc(C(F)(F)F)c1Cl         pIC50           < 5.00
2  C[C@@H]1c2nnn(-c3ncccn3)c2CCN1C(=O)c1cccc(C(F)(F)F)c1Cl         pIC50           < 5.00
3  C[C@@H]1c2nnn(-c3cc(F)ccn3)c2CCN1C(=O)c1cccc(C(F)(F)F)c1Cl         pIC50           < 5.00

* * *

test-method-notes: Apparent permeability across apical to basolateral side in human Caco2 cells
Assay type: ADME, cell-based
details: Caco-2
readout-name: Papp A→B

> print(dat)
                                chem.smiles  reported.result
1  C[C@@H]1c2nnn(-c3ncc(F)cn3)c2CCN1C(=O)c1cccc(C(F)(F)F)c1Cl  75.3 ×10⁻⁶ cm/s

* * *

Measured fraction unbound at 6 h, 1 µM of individual entries
test-method-notes: Protein binding in rat plasma at 1 uM after 6 hrs by equilibrium dialysis method
Format: ADME, cell-free
details: read-out: PPB (converted)
readout-name: fraction unbound at 6 h, 1 µM

> print(dat)
                                chem.smiles  reported.result
1  C[C@@H]1c2nnn(-c3cc(F)ccn3)c2CCN1C(=O)c1cccc(C(F)(F)F)c1Cl            0.052
2  C[C@@H]1c2nnn(-c3ncccn3)c2CCN1C(=O)c1cccc(C(F)(F)F)c1Cl            0.076
3  C[C@@H]1c2nnn(-c3cnccn3)c2CCN1C(=O)c1cccc(C(F)(F)F)c1Cl            0.063
4  Cc1ccnc(-n2nnc3c2CCN(C(=O)c2cccc(C(F)(F)F)c2Cl)[C@@H]3C)n1            0.095
5  C[C@@H]1c2nnn(-c3ncc(F)cn3)c2CCN1C(=O)c1cccc(C(F)(F)F)c1Cl            0.122

* * *

test-method-notes: Oral bioavailability in Balb/c mouse at 5 mg/kg by LC-MS/MS analysis
Assay type: ADME, organism-based
details: in vivo
readout-name: bioavailability

> print(dat)
                                chem.smiles  reported.result
1  C[C@@H]1c2nnn(-c3ncccn3)c2CCN1C(=O)c1cccc(C(F)(F)F)c1Cl              61%

* * *

test-method-notes: Protein binding in rat brain at 5 uM after 5 hrs by equilibrium dialysis method
Format: ADME, tissue-based
details: read-out: PB (converted)
readout-name: fraction unbound at 5 h, 5 µM

> print(dat)
                                chem.smiles  reported.result
1  Cc1ccnc(-n2nnc3c2CCN(C(=O)c2cccc(C(F)(F)F)c2Cl)[C@@H]3C)n1            0.041
2  C[C@@H]1c2nnn(-c3cnccn3)c2CCN1C(=O)c1cccc(C(F)(F)F)c1Cl             0.05
3  C[C@@H]1c2nnn(-c3ncc(F)cn3)c2CCN1C(=O)c1cccc(C(F)(F)F)c1Cl            0.051

* * *

test-method-notes: Half life in Sprague-Dawley rat at 1 mg/kg, iv by LC-MS/MS analysis
Assay type: ADME, organism-based
details: in vivo
Measured half-life of individual entries
readout-name: half-life (h)

> print(dat)
                                chem.smiles  units.label  reported.result
1  C[C@@H]1c2nnn(-c3cnccn3)c2CCN1C(=O)c1cccc(C(F)(F)F)c1Cl            h              1.5
2  Cc1ccnc(-n2nnc3c2CCN(C(=O)c2cccc(C(F)(F)F)c2Cl)[C@@H]3C)n1            h              0.8
3  C[C@@H]1c2nnn(-c3ncccn3)c2CCN1C(=O)c1cccc(C(F)(F)F)c1Cl            h              0.5
4  C[C@@H]1c2nnn(-c3ncc(F)cn3)c2CCN1C(=O)c1cccc(C(F)(F)F)c1Cl            h              8.6

* * *

Measured clearance of individual entries
test-method-notes: Clearance in Sprague-Dawley rat at 1 mg/kg, iv or 5 mg/kg, po by LC-MS/MS analysis
Assay type: ADME, organism-based
details: in vivo
readout-name: clearance (mL/min/kg)

> print(dat)
                                chem.smiles  readout.name  reported.result
1  C[C@@H]1c2nnn(-c3ncccn3)c2CCN1C(=O)c1cccc(C(F)(F)F)c1Cl     clearance               66
2  Cc1ccnc(-n2nnc3c2CCN(C(=O)c2cccc(C(F)(F)F)c2Cl)[C@@H]3C)n1     clearance               64
3  C[C@@H]1c2nnn(-c3ncc(F)cn3)c2CCN1C(=O)c1cccc(C(F)(F)F)c1Cl     clearance              2.9
4  C[C@@H]1c2nnn(-c3cnccn3)c2CCN1C(=O)c1cccc(C(F)(F)F)c1Cl     clearance               46

* * *

test-method-notes: Oral bioavailability in cynomolgus monkey at 5 mg/kg by LC-MS/MS analysis
Assay type: ADME, organism-based, Macaca fascicularis
details: in vivo
readout-name: bioavailability

> print(dat)
                                chem.smiles  reported.result
1  C[C@@H]1c2nnn(-c3ncccn3)c2CCN1C(=O)c1cccc(C(F)(F)F)c1Cl               5%

* * *

Measured Vd of individual entries
test-method-notes: Volume of distribution at steady state in cynomolgus monkey at 1 mg/kg, iv or 5 mg/kg, po by LC-MS/MS analysis
Format: ADME, organism-based, Macaca fascicularis
details: in vivo, read-out: Vdss
readout-name: Vd (L/kg)

> print(dat)
                                chem.smiles  units.label  reported.result
1  C[C@@H]1c2nnn(-c3ncccn3)c2CCN1C(=O)c1cccc(C(F)(F)F)c1Cl         L/kg              0.9
2  C[C@@H]1c2nnn(-c3ncc(F)cn3)c2CCN1C(=O)c1cccc(C(F)(F)F)c1Cl         L/kg              2.1

* * *

system-under-test: Cytochrome P450 3A4 (Homo sapiens, UniProt P08684)
Sequence (P08684 whole entry): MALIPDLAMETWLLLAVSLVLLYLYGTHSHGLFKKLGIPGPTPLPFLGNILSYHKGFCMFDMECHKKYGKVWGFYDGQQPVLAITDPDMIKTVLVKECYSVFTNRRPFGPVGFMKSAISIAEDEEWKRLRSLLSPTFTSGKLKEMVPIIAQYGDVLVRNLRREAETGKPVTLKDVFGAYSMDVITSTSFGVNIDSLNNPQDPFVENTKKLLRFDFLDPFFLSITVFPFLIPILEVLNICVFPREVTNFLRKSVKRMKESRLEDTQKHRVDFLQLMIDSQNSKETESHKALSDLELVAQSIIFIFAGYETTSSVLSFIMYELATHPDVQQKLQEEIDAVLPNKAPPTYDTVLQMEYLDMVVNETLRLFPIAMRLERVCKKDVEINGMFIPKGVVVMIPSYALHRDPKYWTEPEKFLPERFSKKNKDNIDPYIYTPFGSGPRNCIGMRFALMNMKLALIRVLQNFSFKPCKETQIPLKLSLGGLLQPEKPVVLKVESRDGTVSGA
readout-name: IC50

> print(dat)
                                chem.smiles  reported.result
1  C[C@@H]1c2nnn(-c3cnccn3)c2CCN1C(=O)c1cccc(C(F)(F)F)c1Cl           2.3 µM
2  C[C@@H]1c2nnn(-c3cc(F)ccn3)c2CCN1C(=O)c1cccc(C(F)(F)F)c1Cl          > 10 µM
3  C[C@@H]1c2nnn(-c3ncccn3)c2CCN1C(=O)c1cccc(C(F)(F)F)c1Cl          > 10 µM

* * *

test-method-notes: Drug uptake in dog brain at 3 mg/kg, po after 96 hrs
Format: ADME, organism-based, Canis lupus familiaris
details: read-out: Drug uptake
readout-name: concentration at 96 h

> print(dat)
                                chem.smiles           readout.name  reported.result
1  C[C@@H]1c2nnn(-c3ncc(F)cn3)c2CCN1C(=O)c1cccc(C(F)(F)F)c1Cl  concentration at 96 h        > 1000 nM

* * *

test-method-notes: Solubility of compound in phosphate buffer at pH 7 after 3 days
Type: physicochemical
Label class 0 if solubility at 72 h falls below 20 µM; label class 1 in every other case.

> print(dat)
                                chem.smiles  category
1  C[C@@H]1c2nnn(-c3ncccn3)c2CCN1C(=O)c1cccc(C(F)(F)F)c1Cl   class 1
2  C[C@@H]1c2nnn(-c3cc(F)ccn3)c2CCN1C(=O)c1cccc(C(F)(F)F)c1Cl   class 0
3  C[C@@H]1c2nnn(-c3cnccn3)c2CCN1C(=O)c1cccc(C(F)(F)F)c1Cl   class 1
4  Cc1ccnc(-n2nnc3c2CCN(C(=O)c2cccc(C(F)(F)F)c2Cl)[C@@H]3C)n1   class 1
5  C[C@@H]1c2nnn(-c3ncc(F)cn3)c2CCN1C(=O)c1cccc(C(F)(F)F)c1Cl   class 1
